Experiment: amyloid nucleation score (Sup35N fusion, yeast selection) (log enrichment); library NNK3; higher = more nucleation; inactive = no reads after selection;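 note: zero at mode of non-aggregating sequences after 7 days selection at 30°C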
measurement-label: amyloid nucleation score

GLVSVLSDEMYCFWQYSCYS 1.91
RVMMSAACHLILCWNWPKWK inactive
MCMYVKMYLNGSLFVYMTSK inactive
GAVFSEWTQVRSCDCDGIDK inactive
AALSSTW inactive
MVRSRLSASRRSICGPIISA inactive
GNWSYVENYV inactive
VHVSVCRSKGWHDLWRIKCV inactive
WYALYAKYASTPGFCACLRG inactive
ERFLIPSDLNYKYA inactive
MTFIRPKLGKKPGMYGTNIV inactive
STQGCLCRYPG -0.333
LSTWSHPSCDRTYVNLKNIV inactive
ATRSLINQQCCRNYASKVLN inactive
YYLRKVKRKENTSMLHAAFS inactive
CRMERGRFRLLKTQ inactive
DIWYKVLYMPVLTV inactive
IYYSRHEYSDCV inactive
RVSWGARVHIWCSLDLVCRF inactive
IFNNYIIYTSYKEV 3.49
KIFRIYICDCELYHTNGMWA 1.56
IRFSKTLRVIVHGEGNGKLC inactive
LFRGRCAPLFSQSVA inactive
EGTRLTSYM inactive
YVRIQRMRFYSCEHWVHHIG inactive
VGMRNTSLRCLVLIG inactive
NFLRAKDLEYRTV -0.761
FVSMRIYGGLRRWHHEYLVV inactive
WFVSSWKNSHLKCGL inactive
FDGFGMDNIWKTFRNPHLMG inactive
WRVHHFGWAGEY inactive
